assay: Oral bioavailability in beagle dog at 1 mg/kg; assay type: ADME, organism-based, Canis lupus familiaris; settings: in vivo

test.smiles	bioavailability, %
N#CC1(NC(=O)[C@@H]2CCCC[C@H]2C(=O)N2CCN(c3nc4ccccc4s3)CC2)CC1	78

* * *

logD by entry:
assay: physchem; settings: buffer, pH 7.4

test.smiles	logD
N#CC1(NC(=O)[C@@H]2CCCC[C@H]2C(=O)N2CCN(c3nc4ncccc4s3)CC2)CC1	1.4
Cc1sc(N2CCN(C(=O)[C@@H]3CCCC[C@H]3C(=O)NC3(C#N)CC3)CC2)nc1C(F)(F)F	2.9
CC1(C)COCc2sc(N3CCN(C(=O)[C@@H]4CCCC[C@H]4C(=O)NC4(C#N)CC4)CC3)nc21	2.4
CC(C)(C)c1csc(N2CCN(C(=O)[C@@H]3CCCC[C@H]3C(=O)NC3(C#N)CC3)CC2)n1	3.3
CS(=O)(=O)c1ccc2nc(N3CCN(C(=O)[C@@H]4CCCC[C@H]4C(=O)NC4(C#N)CC4)CC3)sc2c1	1.5
N#Cc1cnc(N2CCN(C(=O)[C@@H]3CCCC[C@H]3C(=O)NC3(C#N)CC3)CC2)s1	1.2
N#CC1(NC(=O)[C@@H]2CCCC[C@H]2C(=O)N2CCN(c3nc4cnccc4s3)CC2)CC1	1.7
N#CC1(NC(=O)[C@@H]2CCCC[C@H]2C(=O)N2CCN(c3nc4ccncc4s3)CC2)CC1	1.6
